System: TO-N3-2 (biotin conjugate)
EXPERIMENTAL_PROTOCOL: pull-down binding Z-score (relative to library population); higher = stronger binding
CONDITION_PARAMETERS: RNA library: Library-2
OUTCOME_MEASURE: pull-down binding Z-score

>>> assay_value("UCCUCUCCUGGUCUGGGAGGAUAGAAGAGAGGA [hsa-mir-5191]")
3.13
>>> assay_value("GUAGACAAUUCUAGUCUUAC [SHAPE_invitro_SARS-CoV-2_Motif_131]")
-0.316
>>> assay_value("ACCAAAAAUGAUAUGGGU [hsa-mir-7977]")
-0.381
>>> assay_value("CCACUUGGCUAUGUAACACAUGGCUUAAAUUUGG [DMSMaPseq_invitro_SARS-CoV-2_Motif_85]")
-0.575
>>> assay_value("GGCACUGGGUAUCGUAGGUGCC [hsa-mir-3116-1]")
0.718
>>> assay_value("UAGUUACACGGUGUUUAAACCGUGUUUGUACUA [SHAPE_invivo_SARS-CoV-2_Motif_139]")
-1.11
>>> assay_value("GGUUAUAAGAAACC")
-0.964
>>> assay_value("UCUUUCAUGGGA [DMSMaPseq_invitro_SARS-CoV-2_Motif_300]")
-0.26
>>> assay_value("GGAGAGUGUGGACACUUAUGAAUGUCUUGACACUCGUU [SHAPE_invitro_SARS-CoV-2_Motif_211]")
0.364
>>> assay_value("AUGGGAGCCCAGAGACGUCCUAU [hsa-mir-8074]")
0.669

* * *

System: TO-N3-2 (biotin conjugate)
EXPERIMENTAL_PROTOCOL: pull-down binding Z-score (relative to library population); higher = stronger binding
CONDITION_PARAMETERS: RNA library: Library-2
// reported pull-down binding Z-score for each item listed
OUTCOME_MEASURE: pull-down binding Z-score

>>> assay_value("GAUCAGUUUCACCUAAACUGUUC")
-1.08
>>> assay_value("GGUAAUUAUACAGUUUCCUGUUUACCUUUUACAAUUAAUUGCC [SHAPE_invitro_SARS-CoV-2_Motif_513]")
-1.1
>>> assay_value("CCCACCAUGUACCAGUGGG [hsa-mir-4422]")
-0.708
>>> assay_value("GAAAUUUGACACCUUCAAUGGGGAAUGUCCAAAUUUU [SHAPE_invitro_SARS-CoV-2_Motif_22]")
-0.988
>>> assay_value("UAAACCACCCAUUAGUUUUCCAUUGUGUGCUAAUGGACAAGUUUUUGGUUUA [SHAPE_invivo_SARS-CoV-2_Motif_310]")
-1.35
>>> assay_value("GGUAGAGAUGAUUUUUCCUACU [hsa-mir-5003]")
0.226
>>> assay_value("UCGUCAAUAGGGCGA [IAV_invivo_PB2_1_Motif_18+IAV_invivo_PB2_1_Motif_18]")
-0.56
>>> assay_value("GAGGCCUCUUGCCAUGGCCUCC [hsa-mir-7113]")
0.766
>>> assay_value("AUAACAAUACUAGAUGGAAUUUCACAGUAUUCACUGAGACUCAUUGAUGCUAUGAUGUUCACAUCUGAUUUGGCUACUAACAAUCUAGUUGU")
-0.351

* * *

Test system: TO-3-N3 (biotin conjugate)
EXPERIMENTAL_PROTOCOL: pull-down binding Z-score (relative to library population); higher = stronger binding
CONDITION_PARAMETERS: RNA library: Library-2
OUTCOME_MEASURE: pull-down binding Z-score

>>> assay_value("CUUAGGGACAACCUUGAACCUGGG [IAV_invivo_PA_3_Motif_29+IAV_invivo_PA_3_Motif_29]")
-0.637
>>> assay_value("CCAAGACAUGUGAUCUGCACCUCUGAAGACAUGCUUAACCCUAAUUAUGAAGAUUUACUCAUUCGUAAGUCUAAUCAUAAUUUCUUGG [DMSMaPseq_invitro_SARS-CoV-2_Multi_33_ComplexLevel_1]")
0.403
>>> assay_value("GAAGUUACAACAACUCUGGAAGAAACUAAGUUCCUCACAGAAAACUUGUUACUUU [DMSMaPseq_invitro_SARS-CoV-2_Motif_72]")
-0.508
>>> assay_value("CACCAAGACUACUUACUGGUG [IAV_invivo_PB1_2_Motif_22+IAV_invivo_PB1_2_Motif_22]")
-0.338

* * *

Tested on: TO-3-N3 (biotin conjugate)
EXPERIMENTAL_PROTOCOL: pull-down binding Z-score (relative to library population); higher = stronger binding
CONDITION_PARAMETERS: RNA library: Library-2
OUTCOME_MEASURE: pull-down binding Z-score

>>> assay_value("GCAGAGCAGGACGCCGCUGCUGC [hsa-mir-8072]")
0.701
>>> assay_value("CGGGGGGGGCCCGGGGACGGCUUGGGCCUGCCUAGUCGG [hsa-mir-1234]")
2.08
>>> assay_value("GUCAUUUUUCUGUGACUGCACAUGGC [hsa-mir-3136]")
-0.191
>>> assay_value("GAGACUUUGUGAUUUGUCUCCAAAGCCUC [hsa-mir-6862-2_6862-1]")
0.202
>>> assay_value("UGGUUAGCUUUUUUUUUUUUUUGAGAUGGAGUCUGGCUC [hsa-mir-8086]")
-0.554

* * *

System: TO-3-N3 (biotin conjugate)
EXPERIMENTAL_PROTOCOL: pull-down binding Z-score (relative to library population); higher = stronger binding
CONDITION_PARAMETERS: RNA library: Library-2
OUTCOME_MEASURE: pull-down binding Z-score

>>> assay_value("AGAUCUAUGUCAUAUAUACAGAUAU [hsa-mir-3924]")
0.902
>>> assay_value("GGAAUUGCAAUGUCGAUAGAUAUCCUGCUAAUUCC [DMSMaPseq_invitro_SARS-CoV-2_Motif_342]")
-0.203
>>> assay_value("GGGUUGGGUUGGGUUGGGUUGGGUUGGGUUGGGUUGGGUU [G4_r(GGGUU)8]")
8.9
>>> assay_value("UUUUCUUAAAUUGUAUAAAGAGAAAU [hsa-mir-944]")
-0.406
>>> assay_value("CAGGACACGAGUAACUCGUCUAUCUUCUG [SARS-CoV-2-Conserved-Structured-36_Interval-120-237_Motif_2]")
0.225
>>> assay_value("AGAUGAAAUGCCUUUGAUUU [hsa-mir-3658]")
-0.497
>>> assay_value("CAAUAGUAAAAAGACAACCUGUUG [hsa-mir-3133]")
-0.559
>>> assay_value("GGCCGUUUGAGAUGUCC [hsa-mir-3674]")
-0.181
>>> assay_value("GGGCUAGAUUCCC [DMSMaPseq_invitro_SARS-CoV-2_Motif_228]")
-0.623
>>> assay_value("UAGUAGCUGGUGGUAUUGUAGCUAUCGUAGUAACAUGCCUUGCCUACUA [DMSMaPseq_invitro_SARS-CoV-2_Motif_172]")
-0.611
>>> assay_value("CCACGCACAUUGCUAACUAAGGGCACACUAGAACCAGAAUAUUUCAAUUCAGUGUGUAGACUUAUGAAAACUAUAGGUCCAGACAUGUUCCUCGGAACUUGUCGG")
-0.478
>>> assay_value("AAUCAUACAUCACCAGAUGUUGAUU [SHAPE_invitro_SARS-CoV-2_Motif_454]")
-0.503
>>> assay_value("UGCUGGUGCUAGAGAGGAAAGCA [hsa-mir-4748]")
0.426
>>> assay_value("GGUUGGCCGCUGACCCCCGCGGGGCCCCCGGCGGCC [hsa-mir-3195]")
-0.103
>>> assay_value("AAAUAGUUUCUAUCAAAAUAGUUU [hsa-mir-3668]")
-0.791
>>> assay_value("AAAUUACCAUUUCAUCUUUUAAAUGGGAUUU")
0.204
>>> assay_value("GACAAUAUGUAUAAUGUUCAUAAGUCAUUC [hsa-mir-384]")
0.197
>>> assay_value("CAUAGAUUAUGACUGUG [SHAPE_invivo_SARS-CoV-2_Motif_206]")
-0.165
>>> assay_value("ACCCGGGUGGUGGAGGUUGCAGUGAGCCAAGAUUGCGCCACUGCACUCCAGCCUGGGC [hsa-mir-1273a]")
1.06

* * *

// reported pull-down binding Z-score for each item listed
Tested on: TO-3-N3 (biotin conjugate)
EXPERIMENTAL_PROTOCOL: pull-down binding Z-score (relative to library population); higher = stronger binding
CONDITION_PARAMETERS: RNA library: Library-2
OUTCOME_MEASURE: pull-down binding Z-score

>>> assay_value("GAGCCCUUGCACACCACCAGCCUC [hsa-mir-6845]")
-0.0477
>>> assay_value("AACACCCAUCCCAGGAUUGCUGAUGGGUGUU [hsa-mir-5705]")
-0.618
>>> assay_value("UCUUUAUUUGACAUGAGUAAAUUUCCCCUUAAAUUAAGGGGUACUGCUGUUAUGUCUUUAAAAGA [SHAPE_invitro_SARS-CoV-2_Motif_387]")
-0.896
>>> assay_value("CCUACUGAUGG [IAV_invivo_PA_3_Motif_12+IAV_invivo_PA_3_Motif_12]")
0.0894
>>> assay_value("AUUGUACUGUGGUGGUUACAAU [hsa-mir-34b]")
-0.851
>>> assay_value("UGUGCUUGUGAAAUUGUCGGUGGACAAAUUGUCACCUGUGCA")
-0.722
>>> assay_value("UCUUAGCACGGGGUCUAAGG [hsa-mir-4747]")
-0.188
>>> assay_value("ACCUGCUCAGUAUGAACUUAAGCAUGGU")
-0.339
>>> assay_value("UAAAGAGUAUUCAACAUC [hsa-mir-1245b]")
-0.609
>>> assay_value("AGGCAACAUGGCCGAGAGGCCGGGGCCU [hsa-mir-564]")
-0.144
>>> assay_value("UCAGUUGUAAACAUUCAAAAAGAAAUUGA")
0.0975
>>> assay_value("GGUCAGGUGGUGCCCUCCUUCCAUGGGUAGAGCCAGAGAUGGUGGGUUCUGGCU [hsa-mir-6131]")
0.869
>>> assay_value("AGCUGGGUGGAGGCAGAGCU [hsa-mir-4291]")
2.46
>>> assay_value("CCAGUAUGGUGG [IAV_invivo_PB1_2_Motif_36+IAV_invivo_PB1_2_Motif_36]")
-0.26
>>> assay_value("CUUUACCAACCACCACAAACCUCUAUCACCUCAGCUGUUUUGCAGAGUGGUUUUAGAAAAAUGGCAUUCCCAUCUGGUAAAG")
-0.0485
>>> assay_value("GCUCCCAACCAACCACUUCCACAUGUUUUGCUGGU [hsa-mir-4451]")
0.136
>>> assay_value("CAUGAAGUGUGAUCAUUGUGGUGAAACUUCAUG")
-0.496
>>> assay_value("AACCAUACAGGUGUUGUUGGAGAAGGUU [DMSMaPseq_invitro_SARS-CoV-2_Motif_31]")
0.0755
>>> assay_value("GUGUAGGGGUGGCUACAC [hsa-mir-4717]")
0.385
>>> assay_value("ACUGAACCAGCUUCAAACAAGUUCACU [hsa-mir-653]")
-0.0896
>>> assay_value("GAGUUGCUGAGUGGGUUGAUCUC [hsa-mir-6764]")
0.17
>>> assay_value("CCGGGUGCCCACAAGACUGUG [hsa-mir-3138]")
0.49
>>> assay_value("UGGUUUGUAACACAAAGGAAUUUUUAUGAACCA [SHAPE_invivo_SARS-CoV-2_Motif_466]")
0.139
>>> assay_value("GAUCUCUUGUAGAUC")
0.682
>>> assay_value("CACCACUUAACCGAAAUUAUGUCUUUACUGGUUAUCGUGUAACUAAAAACAGUAAAGUACAAAUAGGAGAGUACACCUUUGAAAAAGGUGACUAUGGUG")
-0.803
>>> assay_value("ACGACGACUACUAGCGUGCCUUUGUAAGCACAAGCUGAUGAGUACGAACUUAUGUACUCAUUCGUUUCGGAAGAGACAGGUACGUUAAUAGUUAAUAGCGU")
-0.319
>>> assay_value("GAAAACUUUGGAGAAAAAUUUUC [hsa-mir-4659a]")
-0.765
>>> assay_value("UGAGUACAUUAUUUAUGAUUAAUCA [hsa-mir-376a-1]")
-0.874
>>> assay_value("CUAUACUGUUACUAGAUCAGGCAUUAGUGUCUGAUGUUGGUGAUAGUGCGG")
-0.845
>>> assay_value("GCAAGGCUGUAGUGUGCACAGCCUUGA [hsa-mir-4452]")
0.945
>>> assay_value("AGAACAGAUAUAUCCACAGUACACUUGGCUGUUCU [hsa-mir-4753]")
-0.759
>>> assay_value("AGUGUUGUUUUUUCCCCCGCCAAUAUU [hsa-mir-92b]")
-0.34
>>> assay_value("GGCGCGCGAGGCUCCAGGCUCC [hsa-mir-3197]")
0.322
>>> assay_value("CCUGCAGCCCCCAGGUGGGGGG [hsa-mir-4271]")
0.75
>>> assay_value("CCUCUGACUAAGGGG [IAV_invivo_M1_M2_7_Motif_4+IAV_invivo_M1_M2_7_Motif_4]")
-0.159
>>> assay_value("AAGAAGGUCAAAUCAAUGAUAUGAUUUUAUCUCUUCUU")
-0.253
>>> assay_value("GGAGAUUGGAGUGGCCAGUGUUCCUAAACAAUUC [hsa-mir-4263]")
0.0793
>>> assay_value("AGGGGUCAUAUCUCUUCUCAGGGAAAGCAGGAGCCCUUCAGCAGGGUCAGGGCCCCU [hsa-mir-6891]")
0.705
>>> assay_value("CUCAGUCCAAGAUGGUAUUUCUACUACCUAGGAACUGGG [SHAPE_invivo_SARS-CoV-2_Motif_544]")
-0.642
>>> assay_value("UGCAGCAGAAACGCUCA [SHAPE_invitro_SARS-CoV-2_Motif_303]")
0.273
